Tested on: OVCAR-8
assay-comment: NCI tumour cell line growth inhibition, 48 h
Activity calls are given as the source filed them. No stated cut-off is given here; in the data, active = GI50 up to about 1.1 µM and inactive = higher.
Please respond with reported GI50 for every item in the list.

Past entries and their recorded results:
molecule: Cc1c2cc[n+](C)cc2c(C)c2c1[nH]c1ccc(OC(C)(C)C)cc12
GI50: > 100 µM (inactive)
--
molecule: O=C1C(=C2CCCC2)CCC1CN1CCCCC1 (centres undefined)
GI50: 21.5 µM (inactive)
--
molecule: C/C(=N\NC(=O)CC(=O)Nc1ccc(Cl)cc1)c1cc2ccccc2oc1=O
GI50: > 100 µM (inactive)
--
molecule: CC1(C)N=C(N)N=C(N)N1c1ccc(CCc2ccccc2)cc1
GI50: 2.53 µM (inactive)
--
molecule: C[C@]12CCC3c4ccc(O)cc4CC[C@H]3C1CC(=O)NC2=O (some centres undefined)
GI50: > 10 µM (inactive)
--
molecule: CN(C)CC/C(=N\Nc1ccc(Cl)c(Cl)c1)c1ccccc1
GI50: 1.87 µM (inactive)
--
molecule: CCOC(CN(C)C(=O)Nc1ccc(Cl)c(Cl)c1)OCC
GI50: > 10 µM (inactive)
--
molecule: N#Cc1c(-c2ccc([N+](=O)[O-])cc2)c(C#N)c(=O)n(NS(=O)(=O)c2ccccc2)c1O
GI50: > 100 µM (inactive)

Switching to the query record.
Give its GI50 value. Item: CC(=O)OC1C(O)COC(O[C@H]2CC[C@]34C[C@]35CC[C@]3(C)C([C@@]6(C)CC[C@@H](C(C)(C)O)O6)[C@@H](O)C[C@@]3(C)C5C[C@H](OC3OCC(O)C(O)C3O)[C@H]4C2(C)C)C1OC1OCC(O)C(O)C1O (some centres undefined)
> 100 µM (inactive)

* * *

System: SK-MEL-2
assay-comment: NCI tumour cell line growth inhibition, 48 h
Calls of active or inactive are those of the source. No stated cut-off is given here; in the data, active = GI50 up to about 1.1 µM and inactive = higher.
value-type: GI50

molecule: C=C(Cl)/C(=C\Br)CCC(Cl)C(C)C.C=C(Cl)/C(=C\Cl)CCC(Cl)C(C)C (configuration not stated)
value-type: GI50
observed-value: 13.6 µM (inactive)

molecule: C=CC1=C(C)c2cc3[nH]c(c4c5nc(cc6[nH]c(cc1n2)c(C)c6CC)C=C5C(=O)C4C(=O)OC)C(CCC(=O)OC/C=C(\C)CCCC(C)CCCC(C)CCCC(C)C)C3C.C=CC1=C(C)c2cc3[nH]c(c4c5nc(cc6[nH]c(cc1n2)c(C=O)c6CC)C=C5C(=O)C4C(=O)OC)C(CCC(=O)OC/C=C(\C)CCCC(C)CCCC(C)CCCC(C)C)C3C (configuration not stated)
value-type: GI50
observed-value: > 100 µM (inactive)

molecule: Cc1ccc(C(=O)C2C=C(c3ccc(C)cc3)SC3C=CCC32)cc1 (configuration not stated)
value-type: GI50
observed-value: 16.1 µM (inactive)

Hey, quick one: what's GI50 for each of these?
1. Clc1cc2ns[s+]c2cc1Cl
2. CC(=O)NC1C(OCc2ccccc2)OC(COC(=O)CCCCCCCCCCNc2ccc([N+](=O)[O-])c3[nH]c4ccccc4c(=O)c23)C(O)C1OC(C)C(=O)NC(C)C(=O)NC(CCC(N)=O)C(=O)OCc1ccccc1 (configuration not stated)
3. CCOC(=O)C1S/C(=N\c2ccc(Cl)cc2Cl)N=C1C (configuration not stated)
4. CCN(CC)CCCNc1ncc(C)c2c1c1ccc3c(O)cccc3c1n2C

1. > 45.1 µM (inactive)
2. > 100 µM (inactive)
3. 61.5 µM (inactive)
4. 12.2 µM (inactive)
